| Compound | logP |
| --- | --- |
| CCCCCCCCCCCCCCCC(=O)OC | 7.38 |
| CCCCCCCCCCCC(=O)OCC(CC)CCCC (stereo not given) | 8.03 |
| CCCCCCCCCC(=O)OC | 4.42 |
| CCCCCCCCCCCCCCCCCC(=O)OC | 8.35 |
| CCCCCCCCCCCC(=O)OC | 5.41 |
| CCCCCCCCCCCC(=O)OCCCC | 6.51 |
| CC/C=C\C/C=C\C/C=C\CCCCCCCC(=O)OC | 6.29 |
| CCCCCCCCCCCCCC(=O)OC | 6.41 |
| CCCCCCCC/C=C\CCCCCCCCCCCC(=O)OC | 9.32 |
| CCCCCCCCCCCCCCCCCCCCCC(=O)OC | 10.2 |
| CCCCC/C=C\C/C=C\CCCCCCCC(=O)OC | 6.82 |
| CCCCCCCCCCCC(=O)OCCC | 6.11 |
| CCCCCCCCCCCC(=O)OCC | 5.71 |
| CCCCCCCC/C=C\CCCCCCCC(=O)OC | 7.45 |
| CCCCCCCCCCCCCCCCCCCC(=O)OC | 9.3 |
